Values from patent US20240360228A1

Target: T1, human chemokine (C-C motif) receptor 8 (CCR8) (human, UniProt P51685 1-355)
T1 construct: also called hCCR8
T1 sequence (P51685 whole entry): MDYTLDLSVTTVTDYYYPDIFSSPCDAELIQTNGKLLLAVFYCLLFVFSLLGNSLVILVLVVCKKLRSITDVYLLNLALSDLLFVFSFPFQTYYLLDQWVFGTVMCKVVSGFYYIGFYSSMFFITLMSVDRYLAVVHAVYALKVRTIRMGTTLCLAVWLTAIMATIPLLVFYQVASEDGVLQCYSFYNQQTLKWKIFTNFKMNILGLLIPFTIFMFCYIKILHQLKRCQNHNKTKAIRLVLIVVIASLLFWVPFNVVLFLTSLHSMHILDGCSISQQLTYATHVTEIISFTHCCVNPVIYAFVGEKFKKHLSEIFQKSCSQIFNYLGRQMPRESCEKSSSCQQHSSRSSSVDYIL
Experiment: flow cytometry blocking, human PBMC, CD3+ gate; % cells stained by competitor PE-AB14 after block
outcome measure: % Positive cells (%)
Write the answer as a number in %, unit excluded.

Solved cases below.
>  <binder>
anti-CCR8 monoclonal antibody AB10 (antibody, V domains shown, Hybridoma monoclonal; also called antibody 10; clone 10) VH: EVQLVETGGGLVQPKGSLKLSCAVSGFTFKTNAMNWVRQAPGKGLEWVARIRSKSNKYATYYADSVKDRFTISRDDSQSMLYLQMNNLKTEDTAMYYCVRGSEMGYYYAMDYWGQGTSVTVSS VL: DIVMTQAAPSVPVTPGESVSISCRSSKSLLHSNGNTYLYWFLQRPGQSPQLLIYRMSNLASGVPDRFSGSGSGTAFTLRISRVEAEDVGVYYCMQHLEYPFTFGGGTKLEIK

>  <% Positive cells [%]>
0.27

$$$$
>  <binder>
anti-CCR8 monoclonal antibody AB11 (antibody, V domains shown, Hybridoma monoclonal; also called antibody 11; clone 11) VH: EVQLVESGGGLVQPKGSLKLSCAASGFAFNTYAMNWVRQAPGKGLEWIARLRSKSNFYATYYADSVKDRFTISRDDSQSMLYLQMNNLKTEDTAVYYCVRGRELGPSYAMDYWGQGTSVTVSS VL: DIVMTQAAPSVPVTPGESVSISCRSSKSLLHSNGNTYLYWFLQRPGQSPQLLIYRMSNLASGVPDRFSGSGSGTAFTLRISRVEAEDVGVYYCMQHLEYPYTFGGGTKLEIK

>  <% Positive cells [%]>
0.12

$$$$
>  <binder>
anti-CCR8 monoclonal antibody AB7 (antibody, V domains shown, Hybridoma monoclonal; also called antibody 7; clone 7) VH: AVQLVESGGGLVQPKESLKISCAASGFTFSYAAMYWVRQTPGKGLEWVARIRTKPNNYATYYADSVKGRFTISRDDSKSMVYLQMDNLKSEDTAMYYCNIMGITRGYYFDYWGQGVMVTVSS VL: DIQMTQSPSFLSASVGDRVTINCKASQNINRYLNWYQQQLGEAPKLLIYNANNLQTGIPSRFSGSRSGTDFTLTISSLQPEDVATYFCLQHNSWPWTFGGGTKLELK

>  <% Positive cells [%]>
0.26

$$$$
>  <binder>
anti-CCR8 monoclonal antibody AB5 (antibody, V domains shown, Hybridoma monoclonal; also called antibody 5; clone 5) VH: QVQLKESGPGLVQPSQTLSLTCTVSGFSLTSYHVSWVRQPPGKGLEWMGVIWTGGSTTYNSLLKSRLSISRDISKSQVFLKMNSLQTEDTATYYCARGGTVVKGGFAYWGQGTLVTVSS VL: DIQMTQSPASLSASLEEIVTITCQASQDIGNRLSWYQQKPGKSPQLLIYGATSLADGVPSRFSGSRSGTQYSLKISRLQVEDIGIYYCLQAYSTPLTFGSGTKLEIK

>  <% Positive cells [%]>
6.47

$$$$
>  <binder>
anti-CCR8 monoclonal antibody AB8 (antibody, V domains shown, Hybridoma monoclonal; also called antibody 8; clone 8) VH: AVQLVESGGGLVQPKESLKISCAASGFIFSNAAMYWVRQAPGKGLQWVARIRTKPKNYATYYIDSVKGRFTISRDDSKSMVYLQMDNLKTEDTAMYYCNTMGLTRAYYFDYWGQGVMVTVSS VL: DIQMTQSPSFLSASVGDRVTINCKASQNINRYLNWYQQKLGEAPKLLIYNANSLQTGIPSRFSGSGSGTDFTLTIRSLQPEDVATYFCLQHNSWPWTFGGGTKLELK

>  <% Positive cells [%]>
0.11

$$$$

The measured % Positive cells associated with anti-CCR8 monoclonal antibody AB6 (antibody, V domains shown, also called antibody 6; clone 6) VH: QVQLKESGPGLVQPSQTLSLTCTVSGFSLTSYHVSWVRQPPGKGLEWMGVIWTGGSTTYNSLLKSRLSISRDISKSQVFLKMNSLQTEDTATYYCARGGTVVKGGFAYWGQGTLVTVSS VL: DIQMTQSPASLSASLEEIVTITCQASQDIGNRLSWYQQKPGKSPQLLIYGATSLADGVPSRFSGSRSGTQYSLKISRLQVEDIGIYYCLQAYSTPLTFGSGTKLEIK reads 6.4

The measured % Positive cells associated with anti-CCR8 monoclonal antibody AB13 (antibody, V domains shown, Hybridoma monoclonal; also called antibody 13; clone 13) VH: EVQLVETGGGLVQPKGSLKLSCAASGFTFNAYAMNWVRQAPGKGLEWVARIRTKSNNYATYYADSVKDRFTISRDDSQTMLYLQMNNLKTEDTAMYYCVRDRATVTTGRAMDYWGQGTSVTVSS VL: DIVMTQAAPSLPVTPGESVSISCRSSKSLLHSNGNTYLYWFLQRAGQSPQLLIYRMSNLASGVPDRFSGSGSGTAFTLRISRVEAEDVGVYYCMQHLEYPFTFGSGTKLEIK reads 4.32
